- System: Staphylococcus aureus
- TEST NAME: Minimal inhibitory activity against the Staphylococcus aureus (X1.1)
- Type: functional
ASSAY READOUT: MIC
Lab note: write values as number then unit, every time.

CO/N=C(\C(=O)N[C@@H]1C(=O)N2C(C(=O)[O-])=C([n+]3ccc(C)c(C)c3)CC[C@H]12)c1csc(N)n1: 2 µg/mL
CO/N=C(\C(=O)N[C@@H]1C(=O)N2C(C(=O)[O-])=C([n+]3ccc4c(c3)ncn4C)CC[C@H]12)c1csc(N)n1: 4 µg/mL
Cc1cc[n+](C2=C(C(=O)[O-])N3C(=O)[C@@H](NC(=O)/C(=N\OCc4ccccc4)c4csc(N)n4)[C@H]3CC2)cc1C: 1 µg/mL
CO/N=C(\C(=O)N[C@@H]1C(=O)N2C(C(=O)[O-])=C([n+]3cccc4c3CCC4)CC[C@H]12)c1csc(N)n1: 2 µg/mL
CC(C)(O/N=C(\C(=O)N[C@@H]1C(=O)N2C(C(=O)[O-])=C(C[n+]3ccccc3)CS[C@H]12)c1csc(N)n1)C(=O)O: 8 µg/mL
CO/N=C(\C(=O)N[C@@H]1C(=O)N2C(C(=O)[O-])=C([n+]3cccc4c3CCCC4)CC[C@H]12)c1csc(N)n1: 2 µg/mL
CO/N=C(\C(=O)N[C@@H]1C(=O)N2C(C(=O)[O-])=C([n+]3cc(C)ccc3C)CC[C@H]12)c1csc(N)n1: 4 µg/mL

Now for another entry.
Exercise: Could you tell me which MIC is on file for CO/N=C(\C(=O)N[C@@H]1C(=O)N2C(C(=O)[O-])=C([n+]3ccccc3)CC[C@H]12)c1csc(N)n1 ?
Key: 4 µg/mL

Values compiled from ChEMBL document CHEMBL1124365.
